Recorded measurements of pKi, one per entry
# TARGET ENTITY: GST-Ubr-box of Ubr2 (Homo sapiens (Human), UniProt Q8IWV8)
# Sequence (Q8IWV8 other isoform, or with tags, fused parts or gaps): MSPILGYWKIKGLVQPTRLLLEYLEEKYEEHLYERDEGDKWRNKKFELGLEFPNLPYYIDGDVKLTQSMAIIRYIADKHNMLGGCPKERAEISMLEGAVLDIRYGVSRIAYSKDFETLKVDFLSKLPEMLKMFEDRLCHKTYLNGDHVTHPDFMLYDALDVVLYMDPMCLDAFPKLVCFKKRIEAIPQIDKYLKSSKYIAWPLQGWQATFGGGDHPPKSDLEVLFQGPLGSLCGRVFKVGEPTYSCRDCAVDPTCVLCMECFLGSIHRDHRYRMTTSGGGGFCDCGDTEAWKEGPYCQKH
pKi: −log10 of the molar value.

ENTRY SMILES | pKi
CC[C@H](C)[C@H](NC(=O)[C@@H](N)Cc1ccc(NC(N)=O)cc1)C(=O)N[C@@H](Cc1ccccc1)C(N)=O | 4.00 to 5.00
CC[C@H](C)[C@H](NC(=O)[C@@H](N)Cc1nn[nH]n1)C(=O)N[C@@H](Cc1ccccc1)C(N)=O | < 4.00
CN(C)C(=N)NCCC[C@H](N)C(=O)N[C@@H](Cc1cscn1)C(=O)N[C@@H](Cc1ccccc1)C(N)=O | 5.00 to 6.00

----------
Quick record of Ki values for GST-Ubr-box of Ubr2 (Homo sapiens (Human), UniProt Q8IWV8).
Non-standard residues stand in square brackets, D forms with d. Residues, ends and D or L forms follow the SMILES beside them. Arg(Me2a) = CN(C)C(=N)NCCC[C@H](N)C(=O)O; His(τ-Me) = Cn1cnc(C[C@H](N)C(=O)O)c1; 2Thi = N[C@@H](Cc1cccs1)C(=O)O

MOLECULE | TARGET ENTITY | Ki
CC[C@H](C)[C@H](NC(=O)[C@@H](N)Cc1cccs1)C(=O)N[C@@H](Cc1ccccc1)C(N)=O [Compound 21] (H-[2Thi]-Ile-Phe-NH2) | GST-Ubr-box of Ubr2 (Homo sapiens (Human), UniProt Q8IWV8) | > 100 µM
N=C(NCCC[C@H](N)C(=O)N[C@@H](Cc1ccc(O)c(Cl)c1)C(=O)N[C@@H](Cc1ccccc1)C(N)=O)NCC(F)(F)F | GST-Ubr-box of Ubr2 (Homo sapiens (Human), UniProt Q8IWV8) | < 1 µM
CC[C@H](C)[C@H](NC(=O)[C@@H](N)CCC/N=C(\N)N(C)C)C(=O)N[C@@H](Cc1ccccc1)C(N)=O [Compound 32] (H-[Arg(Me2a)]-Ile-Phe-NH2) | GST-Ubr-box of Ubr2 (Homo sapiens (Human), UniProt Q8IWV8) | 1 to 10 µM
CC[C@H](C)[C@H](NC(=O)[C@@H](N)Cc1cn(C)cn1)C(=O)N[C@@H](Cc1ccccc1)C(N)=O [Compound 13] (H-[His(τ-Me)]-Ile-Phe-NH2) | GST-Ubr-box of Ubr2 (Homo sapiens (Human), UniProt Q8IWV8) | > 100 µM
CNC(=N)N(C)CCC[C@H](N)C(=O)N[C@@H](Cc1ccc(O)c(C)c1)C(=O)N[C@@H](Cc1ccccc1)C(N)=O | GST-Ubr-box of Ubr2 (Homo sapiens (Human), UniProt Q8IWV8) | 10 to 100 µM
CNC(=N)N(C)CCC[C@H](N)C(=O)N[C@@H](Cc1ccc(O)c([N+](=O)[O-])c1)C(=O)N[C@@H](Cc1ccccc1)C(N)=O [Compound 12] | GST-Ubr-box of Ubr2 (Homo sapiens (Human), UniProt Q8IWV8) | < 1 µM

----------
# TARGET ENTITY: GST-Ubr-box of Ubr2 (Homo sapiens (Human), UniProt Q8IWV8)
Non-standard residues stand in square brackets, D forms with d. Residues, ends and D or L forms follow the SMILES beside them. Tyr(3-NO2) = N[C@@H](Cc1ccc(O)c([N+](=O)[O-])c1)C(=O)O; Phe(4-guanidino) = N=C(N)Nc1ccc(C[C@H](N)C(=O)O)cc1
Items are presented alongside their recorded Ki.
MEASURED ENDPOINT: Ki

COMPOUND | OBSERVED MEASUREMENT
COc1ccc(C[C@H](NC(=O)[C@@H](N)CCCNC(=N)NCC(F)(F)F)C(=O)N[C@@H](Cc2ccccc2)C(N)=O)cc1 | < 1 µM
NCC(=O)N[C@@H](Cc1ccc(O)c([N+](=O)[O-])c1)C(N)=O [Compound 17] (H-Gly-[Tyr(3-NO2)]-NH2) | > 100 µM
CN(C)C(=N)NCCC[C@H](N)C(=O)N[C@@H](Cc1cccs1)C(=O)N[C@@H](Cc1ccccc1)C(N)=O | 1 to 10 µM
CC[C@H](C)[C@H](NC(=O)[C@@H](N)Cc1ccc(N=C(N)N)cc1)C(=O)N[C@@H](Cc1ccccc1)C(N)=O [Compound 2] (H-[Phe(4-guanidino)]-Ile-Phe-NH2) | < 1 µM
CC[C@H](C)[C@H](NC(=O)[C@@H](N)CCCNC(=N)NCC(F)(F)F)C(=O)N[C@@H](Cc1ccccc1)C(N)=O | < 1 µM
N=C(N)NCCC[C@H](N)C(=O)N[C@@H](Cc1ccc(O)c(Cl)c1)C(=O)N[C@@H](Cc1ccccc1)C(N)=O | 10 to 100 µM
